- System: human PBMCs
- test-protocol: Human PBMC cytokine response assay (IFN-γ and IFN-α in cell-free medium by ELISA), with or without cPLGA
- Type: cell-based
- applied-conditions: Donor 12; 20 μg/ml, 24 h
Strand notation (5' to 3'): a small letter for the sugar, then the base; units joined by * are phosphorothioate-linked, units joined directly phosphodiester-linked; [ ] holds rarer units or linkages, { } end groups; capitals alone tell only the bases. d = 2'-deoxy (DNA)
What IFN-γ Donor 12 was measured for each of the following?
Give bare numbers.

Below, each entry is followed by its recorded IFN-γ Donor 12 result.
INSERT INTO results (substance, numeric_readout) VALUES
  ('5′-TCGTCGA-3′-HEG-5′-ACGTTCG-3′-HEG-5′-AGATGAT-3′ [Compound C-8]', 28),
  ('5′-TCGTCGA-3′- C3-5′-ACGTTCG-3′-C3-5′-AGATGAT-3′ [Compound C-9]', 30),
  ('5′-TCGTCG-3′ [Compound P-2, reference compound]', 2);

For this substance ( 5′-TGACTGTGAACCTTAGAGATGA-3′ (SEQ ID NO: 3) (dT*dG*dA*dC*dT*dG*dT*dG*dA*dA*dC*dC*dT*dT*dA*dG*dA*dG*dA*dT*dG*dA) [Compound P-7, negative control, reference compound] ), measured IFN-γ Donor 12 is 2
